- Tested on: Rattus norvegicus
- protocol summary: Percent inhibition of carrageenan induced rat paw edema 3 hr after a peroral administration of 50 mg/kg
- Assay type: functional
- test conditions: route oral
parameter measured: inhibition in vivo at 50 mg/kg
In your response, the unit should come after the numeric value.

Look over these answered cases.
compound structure string	reported measurement
COc1cc(CC(=O)O)ccc1-c1ccc(Cl)cc1	38%
COc1c(CC(=O)O)cccc1-c1ccc(Cl)cc1	16%
COc1ccc(-c2ccc(Cl)cc2)cc1CC(=O)O	0%
COc1cc(-c2ccc(Cl)cc2)ccc1CC(=O)O	27%
COc1ccc(CC(=O)O)c(-c2ccc(Cl)cc2)c1	0%

For the compound shown here, "COc1ccc2c(c1)c(CC(=O)O)c(C)n2C(=O)c1ccc(Cl)cc1" , give the reported inhibition in vivo at 50 mg/kg.
45%

For the compound shown here, "COc1cc(CC(=O)O)cc(-c2ccc(Cl)cc2)c1" , give the reported inhibition in vivo at 50 mg/kg.
53%

For the compound shown here, "COc1cccc(CC(=O)O)c1-c1ccc(Cl)cc1" , give the reported inhibition in vivo at 50 mg/kg.
0%

For the compound shown here, "COc1ccc(-c2ccc(Cl)cc2)c(CC(=O)O)c1" , give the reported inhibition in vivo at 50 mg/kg.
13%

For the compound shown here, "COc1ccc(CC(=O)O)cc1-c1ccc(Cl)cc1" , give the reported inhibition in vivo at 50 mg/kg.
49%

For the compound shown here, "COc1cccc(-c2ccc(Cl)cc2)c1CC(=O)O" , give the reported inhibition in vivo at 50 mg/kg.
0%
